// values below are reported Final Product PDI
# measurement notes: Particle characteristics of LNPs containing luciferase mRNA and novel ionizable lipids
# Format: physicochemical
# stated conditions: Table 3; luciferase mRNA LNP 1.6:54.6:32.8:10.9
readout label: Final Product PDI

compound="CCCCC/C=C\\CCCC(CCC/C=C\\CCCCC)=NNC(=O)CC(CCCCCCCCC)N(CCCN(C)C)C(=O)C(CCCCCC)CCCCCCCC (stereo not drawn)" readout_label="Final Product PDI" assay_result=0.03
compound="CCCCCCCCCCN(C(=O)CCCN(C)C)C(CCCCCCCCC)CC(=O)OCC(CCCCCC)CCCCCCCC (stereo not drawn)" readout_label="Final Product PDI" assay_result=0.02
compound="CCCCCCCCCCCCCOC(=O)CCCCC(CCCCCCCCCC)N(CCN(C)C)C(=O)CCCCC(=O)OCC(CCCC)CCCCCC (stereo not drawn)" readout_label="Final Product PDI" assay_result=0.06
compound="CCCCC/C=C\\CCCC(CCC/C=C\\CCCCC)NNC(=O)CC(CCCCCCCCC)N(CCCN(C)C)C(=O)CCCCCCCCC (stereo not drawn)" readout_label="Final Product PDI" assay_result=0.07
compound="CCCCCCCCCCC(CCCCCC(=O)OCC(CCCCCC)CCCCCCCC)N(CCCCCCCCCC)C(=O)CCCN(C)C (stereo not drawn)" readout_label="Final Product PDI" assay_result=0.03
compound="CCCCCCCCCCC(CCCCC(=O)OCc1cc(CCCCCC)cc(CCCCCC)c1)N(CCCN(C)C)C(=O)C(CCCCCC)CCCCCCCC (stereo not drawn)" readout_label="Final Product PDI" assay_result=0.08
compound="CCCCC/C=C\\CCCC(CCC/C=C\\CCCCC)C(CCC/C=C\\CCCCC)OC(=O)CCCCN(C)C (stereo not drawn) [Compound 13-B43, reference compound]" readout_label="Final Product PDI" assay_result=0.06
compound="CCCCCCCCCCCCC(=O)N(CCCN(C)C)C(CCCCCCCCCC)CCCCC(=O)OCc1cc(CCCCCC)cc(CCCCCC)c1 (stereo not drawn)" readout_label="Final Product PDI" assay_result=0.05
compound="CCCCCCCCCCC(CCCCCC(=O)OCC(CCCCCC)CCCCCCCC)N(CCCCCCCCCC)C(=O)CCCCN(C)C (stereo not drawn)" readout_label="Final Product PDI" assay_result=0.05
compound="CCCCCCCCCCC(CCCCC(=O)OCc1cc(CCCCCC)cc(CCCCCC)c1)N(CCCN(C)C)C(=O)CCCCCCCCC (stereo not drawn)" readout_label="Final Product PDI" assay_result=0.05
compound="CCCCC/C=C\\CCCN(CCC/C=C\\CCCCC)NC(=O)CC(CCCCCCCCC)N(CCCN(C)C)C(=O)CCCCCCCCC (stereo not drawn)" readout_label="Final Product PDI" assay_result=0.05
compound="CCCCCCCCCCCCCOC(=O)CCCCC(CCCCCCCCCC)N(CCN(C)C)C(=O)CCCCCCC(=O)OCC(CCCC)CCCCCC (stereo not drawn)" readout_label="Final Product PDI" assay_result=0.08

###

// values below are reported Final Product % EE
# measurement notes: Particle characteristics of LNPs containing EGFP mRNA and novel ionizable lipids
# Type: physicochemical
# stated conditions: Table 22; EGFP mRNA LNP 1.6:54.6:32.8:10.9
readout label: Final Product % EE (%)

molecule="CCCCCCCCCCC(CCCCCCC(=O)OCCC(CCCCCC)CCCCCC)N(CCCCCCCCCC)C(=O)OCCCN(C)C (stereo not shown) [Compound 105]" assay_result=97
molecule="CCCCCCCCCCC(CCCCCCC(=O)OC(CCCCCCC)CCCCCCC)N(CCCCCCC(F)(F)C(=O)OC(CCCCCCC)CCCCCCC)C(=O)CCCN(C)C (stereo not shown) [Compound 117]" assay_result=99
molecule="CCCCCCCCCCC(CCCCCCC(=O)OC(CCCCCC)CCCCCC)N(CCCCCCC(F)(F)C(=O)OC(CCCCCC)CCCCCC)C(=O)CCCN(C)C (stereo not shown) [Compound 116]" assay_result=98
molecule="CCCCCCCCCCN(C(=O)CCCN(C)C)C(CCCCCCCCC)CCCCCCC(F)C(=O)OC(CCCCCCCC)CCCCCCCC (stereo not shown) [Compound 115]" assay_result=98
molecule="CCCCCCCCCCN(C(=O)CCCN(C)C)C(CCCCCCCCC)CCCCCCC(F)C(=O)OC(CCCCCCC)CCCCCCC (stereo not shown) [Compound 114]" assay_result=98
molecule="CCCCCCCCCCN(C(=O)CCCN(C)C)C(CCCCCCCCC)CCCCCCC(F)(F)C(=O)OC(CCCCCCCC)CCCCCCCC (stereo not shown) [Compound 104]" assay_result=99
molecule="CCCCCCCCCCC(CCCCCCC(=O)OC(CCCCCCCC)CCCCCCCC)N(CCCCCCC(F)(F)C(=O)OC(CCCCCCCC)CCCCCCCC)C(=O)CCCN(C)C (stereo not shown) [Compound 118]" assay_result=98
